molecular target: UniProt:Q07869; assay: PPARα luciferase cell reporter assay (Indigo Biosciences); format: cell-based; conditions: mean ± SEM of at least two separate experiments in triplicate (Table 9); read-out: EC50 hPPARα
pEC50: −log10 of the molar value.
quantity.name: pEC50

O=C(O)c1cc(F)cc(NCc2ccc(OCc3ccc(F)cc3)c(Cl)c2)c1 [32′]
7.28
Cc1cc(CN(C)c2cccc(C(=O)O)c2)ccc1OCc1ccc(F)cc1 [30′]
7.17

====

target: hPPARα (Homo sapiens, UniProt Q07869); assay: PPARα luciferase cell reporter assay (Indigo Biosciences); format: cell-based; conditions: text b235; read-out: EC50 (PPARα)
quantity.name: EC50 (nM)
Provide only the numeric value, understood in nM.

Query (compound): `Cc1cc(CNc2cccc(C(=O)O)c2)ccc1OCc1ccc(F)cc1` ; field requested: EC50 37

====

Biological target: hPPARα (Homo sapiens)
Experiment: PPARα luciferase cell reporter assay (Indigo Biosciences)
Type: cell-based
Conditions: 50 μM; structure IIa compounds (Table 6)
Description: With the focused subset of analogs in-hand, our efforts shifted to the evaluation of these derivatives for PPARα agonism. Preliminary evaluation utilized a commercially available PPARα luciferase cell reporter assay (Indigo Biosciences). The cell-line employed is engineered to constitutively express high-levels of hPPARα. […] Luciferase activity is detected indirectly through quantification of oxyluciferin production.
quantity.name: Fold (50 μM): fold increase in luciferase compared to DMSO negative control (fold)

O=C(O)c1cccc(NCc2ccc(OCc3cc(F)cc(F)c3)cc2)c1 [Compound 119]
35

A: O=C(O)c1cc(Br)cc(NCc2ccc(OCc3ccc(F)cc3)cc2)c1 [Compound 184]
B: CN(Cc1ccc(OCc2ccc(F)cc2)cc1)c1cccc(C(=O)O)c1 [Compound 151]
// compare measured Fold (50 μM): fold increase in luciferase compared to DMSO negative control between A and B ; output the lower one State your choice using its label. A
(A: 69 fold, B: 109 fold)

====

target: hPPARδ (Homo sapiens); construct: expressed in transfected cells; assay: PPARδ luciferase reporter cell-line assay (Indigo Biosciences); format: cell-based; settings: luciferase reporter cell-line; triplicate, single experiment; read-out: hPPARδ EC50
Sequence (Q03181 whole entry): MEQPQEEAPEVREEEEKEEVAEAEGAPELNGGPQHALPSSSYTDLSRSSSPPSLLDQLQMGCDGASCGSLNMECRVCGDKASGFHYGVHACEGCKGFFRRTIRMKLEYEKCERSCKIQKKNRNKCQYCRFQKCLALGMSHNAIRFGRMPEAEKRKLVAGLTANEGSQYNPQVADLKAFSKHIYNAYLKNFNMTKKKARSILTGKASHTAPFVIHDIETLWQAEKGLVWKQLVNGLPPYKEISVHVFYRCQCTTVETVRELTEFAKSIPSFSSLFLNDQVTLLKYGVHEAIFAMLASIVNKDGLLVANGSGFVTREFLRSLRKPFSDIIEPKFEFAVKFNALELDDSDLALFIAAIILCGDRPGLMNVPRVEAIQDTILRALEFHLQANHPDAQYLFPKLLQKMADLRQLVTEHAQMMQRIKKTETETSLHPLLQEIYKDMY
pEC50: −log10 of the molar value.
quantity.name: pEC50

P: COc1ccc(COc2ccc(CNc3cccc(OC(C)(C)C(=O)O)c3)c(OCc3ccc(OC)cc3)c2)cc1
Q: COc1ccc(COc2ccc(CNc3cccc(OC(C)(C)C(=O)O)c3)cc2)cc1
// compare measured pEC50 between P and Q ; output the lower one State your choice using its label. Q
(Q: 4.41, P: 5.05)

====

target: hPPARγ (Homo sapiens, UniProt P37231); construct: expressed in transfected cells; test: PPARγ luciferase reporter cell-line assay (Indigo Biosciences); type: cell-based; settings: luciferase reporter cell-line; triplicate, single experiment; read-out: hPPARγ EC50
Sequence (P37231 whole entry): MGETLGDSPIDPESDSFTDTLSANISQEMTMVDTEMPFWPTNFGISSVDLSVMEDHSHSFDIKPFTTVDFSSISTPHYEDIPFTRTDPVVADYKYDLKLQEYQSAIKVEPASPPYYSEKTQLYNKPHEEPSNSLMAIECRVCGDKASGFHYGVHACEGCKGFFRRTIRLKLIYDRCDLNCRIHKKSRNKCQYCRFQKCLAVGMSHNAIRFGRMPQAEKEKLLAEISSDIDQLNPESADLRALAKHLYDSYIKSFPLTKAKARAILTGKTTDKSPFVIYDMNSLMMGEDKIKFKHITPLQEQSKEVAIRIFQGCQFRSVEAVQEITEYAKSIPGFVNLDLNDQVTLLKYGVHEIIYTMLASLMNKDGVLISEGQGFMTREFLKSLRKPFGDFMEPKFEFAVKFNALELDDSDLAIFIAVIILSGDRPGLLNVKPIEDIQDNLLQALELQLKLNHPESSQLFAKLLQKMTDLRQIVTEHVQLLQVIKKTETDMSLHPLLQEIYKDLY
pEC50: −log10 of the molar value.
quantity.name: pEC50

I: COc1ccc(COc2ccc(CNc3cccc(OC(C)(C)C(=O)O)c3)cc2)cc1
II: COc1ccc(COc2ccc(CNc3cccc(OC(C)(C)C(=O)O)c3)c(OCc3ccc(OC)cc3)c2)cc1
// compare measured pEC50 between I and II ; output the lower one State your choice using its label. I
(I: 4.74, II: 5.25)

====

Biological target: hPPARα (Homo sapiens)
Sequence (Q07869 1-468): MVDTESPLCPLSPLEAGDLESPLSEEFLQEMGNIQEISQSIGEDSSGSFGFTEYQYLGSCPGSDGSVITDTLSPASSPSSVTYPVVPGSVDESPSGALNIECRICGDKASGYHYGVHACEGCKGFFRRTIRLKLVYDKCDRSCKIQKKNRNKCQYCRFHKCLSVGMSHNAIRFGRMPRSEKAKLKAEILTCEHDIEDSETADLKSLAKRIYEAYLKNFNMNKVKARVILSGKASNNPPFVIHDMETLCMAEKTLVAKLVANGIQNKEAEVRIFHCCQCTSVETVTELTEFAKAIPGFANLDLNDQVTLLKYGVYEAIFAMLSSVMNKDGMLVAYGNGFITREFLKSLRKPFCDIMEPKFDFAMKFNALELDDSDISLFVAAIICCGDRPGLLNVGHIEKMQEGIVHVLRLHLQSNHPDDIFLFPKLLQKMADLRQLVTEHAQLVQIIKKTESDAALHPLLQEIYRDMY
Test: PPARα luciferase cell reporter assay (Indigo Biosciences)
Type: cell-based
Conditions: 50 μM; structure IIb compounds (Table 8)
quantity.name: Fold (50 μM): fold increase in luciferase compared to DMSO negative control (fold)

For orientation, consider the following solved cases.
CC(C)(Oc1ccc(NCc2ccc(OCc3ccc(F)cc3)cc2)cc1)C(=O)O
74
O=C(O)c1ccc(NCc2ccc(OCc3ccc(C(F)(F)F)cc3)cc2)cc1
8

a: COc1ccc(COc2ccc(CNc3ccc(C(=O)O)cc3)cc2)cc1
b: O=C(O)c1ccc(NCc2ccc(OCc3ccc(F)cc3)cc2)cc1
// compare measured Fold (50 μM): fold increase in luciferase compared to DMSO negative control between a and b ; output the lower one State your choice using its label. b
